Attribution: the supplement of paper PMC8617591

# Tested on: Mycobacterium tuberculosis Erdman (autoluminescent)
# run_description: GRinf, maximum normalised growth rate inhibition (unitless (-1 to 1)); higher = less effect (negative = killing)
# measurement_setup: in vitro model: cholesterol-high 0.2 mM; time point: constant (~7 days, model-specific)
property: GRinf

compound | property | result
NC(=O)c1cnccn1 [pyrazinamide] + CO[C@H]1/C=C/O[C@@]2(C)Oc3c(C)c(O)c4c(O)c(c(/C=N/N5CCN(C6CCCC6)CC5)c(O)c4c3C2=O)NC(=O)/C(C)=C\C=C\[C@H](C)[C@H](O)[C@@H](C)[C@@H](O)[C@@H](C)[C@H](OC(C)=O)[C@@H]1C | GRinf | -0.246

Problem: Look at this compound and give its reported GRinf. CC[C@@H](CO)NCCN[C@@H](CC)CO [ethambutol] + CO[C@H]1/C=C/O[C@@]2(C)Oc3c(C)c(O)c4c(O)c(c(/C=N/N5CCN(C6CCCC6)CC5)c(O)c4c3C2=O)NC(=O)/C(C)=C\C=C\[C@H](C)[C@H](O)[C@@H](C)[C@@H](O)[C@@H](C)[C@H](OC(C)=O)[C@@H]1C [rifapentine]
Result: -0.482

Problem: I would be grateful if you could share the reported GRinf for CO[C@H]1/C=C/O[C@@]2(C)Oc3c(C)c(O)c4c(O)c(c(/C=N/N5CCN(C6CCCC6)CC5)c(O)c4c3C2=O)NC(=O)/C(C)=C\C=C\[C@H](C)[C@H](O)[C@@H](C)[C@@H](O)[C@@H](C)[C@H](OC(C)=O)[C@@H]1C [rifapentine] + CO[C@H]1/C=C/O[C@@]2(C)Oc3c(C)c(O)c4c(O)c(c(/C=N/N5CCN(C)CC5)c(O)c4c3C2=O)NC(=O)/C(C)=C\C=C\[C@H](C)[C@H](O)[C@@H](C)[C@@H](O)[C@@H](C)[C@H](OC(C)=O)[C@@H]1C .
Result: -0.231

Problem: Endpoint output: GRinf of COc1nc2ccc(Br)cc2cc1[C@@H](c1ccccc1)[C@@](O)(CCN(C)C)c1cccc2ccccc12 [bedaquiline] + NC(=O)c1cnccn1 [pyrazinamide] . Value?
Result: -0.543

====

# Test system: Mycobacterium tuberculosis Erdman (autoluminescent)
# run_description: GRinf, maximum normalised growth rate inhibition (unitless (-1 to 1)); higher = less effect (negative = killing)
# measurement_setup: in vitro model: butyrate; time point: constant (~7 days, model-specific)
Please use 1 (yes) whenever GRinf is not below -0.09, and 0 (no) whenever it is.

compound | class
CC(C)/N=c1\cc2n(-c3ccc(Cl)cc3)c3ccccc3nc-2cc1Nc1ccc(Cl)cc1 [clofazimine] + CC[C@@H](CO)NCCN[C@@H](CC)CO [ethambutol] | 1 (yes)

Problem: Is it the case that CC[C@@H](CO)NCCN[C@@H](CC)CO [ethambutol] + CC(=O)NC[C@H]1CN(c2ccc(N3CCOCC3)c(F)c2)C(=O)O1 [linezolid] has GRinf reaching or exceeding -0.09?
Result: 1 (yes)

Problem: Check the entry COc1nc2ccc(Br)cc2cc1[C@@H](c1ccccc1)[C@@](O)(CCN(C)C)c1cccc2ccccc12 [bedaquiline] + NC(=O)c1cnccn1 [pyrazinamide] : does GRinf equal or exceed -0.09?
Result: 0 (no)

Problem: # bool: GRinf of CC(C)/N=c1\cc2n(-c3ccc(Cl)cc3)c3ccccc3nc-2cc1Nc1ccc(Cl)cc1 [clofazimine] + CO[C@H]1/C=C/O[C@@]2(C)Oc3c(C)c(O)c4c(O)c(c(/C=N/N5CCN(C6CCCC6)CC5)c(O)c4c3C2=O)NC(=O)/C(C)=C\C=C\[C@H](C)[C@H](O)[C@@H](C)[C@@H](O)[C@@H](C)[C@H](OC(C)=O)[C@@H]1C [rifapentine] >= -0.09
Result: 1 (yes)

Problem: Has COc1nc2ccc(Br)cc2cc1[C@@H](c1ccccc1)[C@@](O)(CCN(C)C)c1cccc2ccccc12 [bedaquiline] + CC(C)/N=c1\cc2n(-c3ccc(Cl)cc3)c3ccccc3nc-2cc1Nc1ccc(Cl)cc1 [clofazimine] a recorded GRinf greater than or equal to -0.09?
Result: 0 (no)
